Test system: Rattus norvegicus
Assay: Biodistribution in Sprague-Dawley rat fat tissue at 1.48 to 2.22 MBq, iv measured at 60 mins by gamma counting analysis
Format: ADME, organism-based, Adipose tissue
Conditions: in vivo, 1 h
VALUE TYPE: Drug uptake (% ID/g)

1. Cn1cc(-c2ccncc2)c(-c2ccc(OCc3nc4ccccc4cc3OCC[18F])cc2)n1 :: 0.124
2. Cn1cc(-c2ccncc2)c(-c2ccc(OCc3cc([18F])c4ccccc4n3)cc2)n1 :: 0.477
3. Cn1cc(-c2ccncc2)c(-c2ccc(OCc3cc(OCCOCCOCC[18F])c4ccccc4n3)cc2)n1 :: 0.123
4. Cn1cc(-c2ccncc2)c(-c2ccc(OCc3cc(COCC[18F])c4ccccc4n3)cc2)n1 :: 0.066
5. Cn1cc(-c2ccncc2)c(-c2ccc(OCc3cc(C[18F])c4ccccc4n3)cc2)n1 :: 0.222
6. Cn1cc(-c2ccncc2)c(-c2ccc(OCc3cc(CCC[18F])c4ccccc4n3)cc2)n1 :: 0.368
7. Cn1cc(-c2ccncc2)c(-c2ccc(OCc3cc(OCC[18F])c4ccccc4n3)cc2)n1 :: 0.259
